Entries and their In Vitro Score
assay target: T1, HLA-A*02:01 (human)
T1 construct: recombinant MHC class I molecule incubated with the synthetic peptide (REVEAL, ProImmune)
assay protocol: REVEAL MHC-peptide binding assay, recombinant HLA

Sample answers from the record:
binder | test result
IFWVKRGRK (synthetic 9-mer of the CD28-4-1BB junction; mutation: none) | 4.5 % of positive control peptide
FWVKRGRKK (synthetic 9-mer of the CD28-4-1BB junction; mutation: none) | 3.5 % of positive control peptide
WVSRGRKKL (synthetic 9-mer variant; the entry already carries the change) | 2.3 % of positive control peptide

Query block: Entry FWVQRGNKK (synthetic 9-mer variant; the entry already carries the changes) : reported In Vitro Score = ?
Result block: 3.1 % of positive control peptide

Query block: Query (binder): IFWVLRGRK (synthetic 9-mer variant; the entry already carries the change) ; field requested: In Vitro Score
Result block: 2.9 % of positive control peptide
